Catalogue of compounds with associated Replicate_1
- testedSystem: SARS-CoV-2 3CLpro (Severe acute respiratory syndrome coronavirus 2)
- protocolDetails: biochemical
- Format: biochemical
- Parameters: unit not given here
- conditionsUsed: sheet LOPAC_screen_w_protease; LOPAC1280 primary screen with protease, 5 µM compound; replicate 1
Write the number on its own, no unit after it.

compound	resultValue
Cc1[nH]c2ccc(O)cc2c1CCN.O=C(O)/C=C\C(=O)O [2-Methyl-5-hydroxytryptamine maleate]	4.629

Prompt line: Please give the measured Replicate_1 for this compound: CC1Cc2cc3c(cc2C(c2ccc(N)cc2)=NN1)OCO3.Cl (stereo not shown)
Response line: 5.021

Prompt line: Also check CC(N)(C(=O)O)c1ccc(C(=O)O)cc1 (racemic) [(±)-alpha-Methyl-4-carboxyphenylglycine]
Response line: 3.648

Prompt line: What about CN1C[C@H](O)[C@@H](O)[C@H](O)[C@H]1CO ?
Response line: 3.9484

* * *

- testedSystem: SARS-CoV-2 3CLpro (Severe acute respiratory syndrome coronavirus 2)
- protocolDetails: biochemical
- Assay type: biochemical
- conditionsUsed: 4 h, read-out: Replicate_2 (LOPAC_screen_w_protease)
Counter-ions that a name gives are not always drawn.
# inhibition at 5 µM per record follows
Form entry: value (%) — number only.

Record excerpt, results attached:
compound	inhibition at 5 µM / %
OC(CCN1CCCCC1)(c1ccccc1)C1CCCCC1 (centres unmarked) [Trihexyphenidyl hydrochloride]	1.86
O=C(O)Cc1ccccc1Nc1c(Cl)cccc1Cl [Diclofenac sodium]	-0.743

Prompt line: Under SARS-CoV-2 3CLpro (Severe acute respiratory syndrome coronavirus 2): inhibition at 5 µM value of Cn1cnc([N+](=O)[O-])c1Sc1ncnc2nc[nH]c12 ?
Response line: 1.57

Prompt line: Now give it for NCC1(CC(=O)O)CCCCC1 too.
Response line: 0.0248

Prompt line: Now the compound C=C(C)[C@H]1CN[C@H](C(=O)O)[C@H]1CC(=O)O
Response line: 2.07

* * *

- testedSystem: SARS-CoV-2 3CLpro (Severe acute respiratory syndrome coronavirus 2, UniProt P0DTD1)
- protocolDetails: biochemical
- Type: biochemical
- conditionsUsed: 4 h, sheet LOPAC_screen_w_protease; primary screen with protease, 5 µM; replicate 2; read-out: Replicate_2
Where a name gives a salt, the structure may show the parent alone.
Entries and their inhibition at 5 µM values follow.
Answer in %, number only, no unit symbol.

Previously resolved entries follow.
molecule	inhibition at 5 µM (%)
Nc1nc(N)c2nc(-c3ccccc3)c(N)nc2n1	-2.63
Cc1scc2c1N(C(=O)CN1CCN(C)CC1)c1ccccc1NC2=O [Telenzepine dihydrochloride]	1.74
CC(C)[N+](C)(CCOC(=O)C1c2ccccc2Oc2ccccc21)C(C)C [Propantheline bromide]	-0.43

Prompt line: If you can, please state the reported inhibition at 5 µM value of O=C1CCC(c2ccc(-n3ccnc3)cc2)=NN1 .
Response line: -2.26

Prompt line: Query CN(C)CCCN1c2ccccc2Sc2ccccc21 [Promazine hydrochloride] next
Response line: -0.563

Prompt line: Moving on to CCCCNc1ccc(C(=O)OCCN(C)C)cc1 [Tetracaine hydrochloride]
Response line: -0.607

Prompt line: Please answer likewise for O=C(O)CNC(=O)C(CS)Cc1ccccc1 (racemic)
Response line: 1.19

Prompt line: Let us now turn to O=C(O)c1ccccc1Nc1ccccc1
Response line: -0.322

Prompt line: Next molecule: S=C(NC1CCCCC1)N1CCC(c2cnc[nH]2)CC1 [Thioperamide maleate]
Response line: 0.227

* * *

- testedSystem: SARS-CoV-2 3CLpro (Severe acute respiratory syndrome coronavirus 2)
- protocolDetails: biochemical
- Type: biochemical
- Set-up: unit not given here
- conditionsUsed: sheet LOPAC_screen_w_protease; LOPAC1280 primary screen at 5 µM, with protease; replicate 1
Label TRUE for high-side Replicate_1 (at or above 1) and FALSE for low-side Replicate_1 (below it).

Record excerpt, results attached:
compound	discreteLabel
COc1ccccc1N1CCN(CCCNc2c(C)c(=O)n(C)c(=O)n2C)CC1 [Urapidil, 5-Methyl-]	FALSE
OC[C@H]1O[C@@H](n2cnc3c(NCCc4ccccc4)ncnc32)[C@H](O)[C@@H]1O [N6-2-Phenylethyladenosine]	TRUE
N[C@@H](Cn1oc(=O)[nH]c1=O)C(=O)O [(+)-Quisqualic acid]	TRUE
COC(=O)c1c(-c2cc(OC)c(OC)c(OC)c2)c2ccnc(OCc3ncccn3)c2c(=O)n1Cc1ccnc(C)c1 [T-0156]	TRUE

Prompt line: Textbook exercise: given the entry O=C(O)CCC(=O)N1CCC[C@H]1C(=O)O [N-Succinyl-L-proline] , state whether its Replicate_1 is greater than or equal to 1.
Response line: TRUE

Prompt line: For Cl.OC1CCCCC1N1CCC(c2ccccc2)CC1 (racemic) [(±)-Vesamicol hydrochloride] then?
Response line: TRUE

Prompt line: Okay, and O=C(O)/C=C\C(=O)O.c1cnc(N2CCN(Cc3ccc4c(c3)OCO4)CC2)nc1 [Piribedil maleate] ?
Response line: FALSE

Prompt line: Can you handle CCn1cnc2c(Nc3cccc(Cl)c3)nc(N[C@@H]3CCCC[C@@H]3N)nc21.Cl [CGP-74514A hydrochloride] next?
Response line: TRUE

* * *

This listing pairs compounds with measured mean.
- testedSystem: SARS-CoV-2 3CLpro (Severe acute respiratory syndrome coronavirus 2, UniProt P0DTD1)
- protocolDetails: biochemical
- Assay type: biochemical
- Design: unit not given here
- conditionsUsed: sheet LOPAC_screen_w_protease; primary screen with protease, 5 µM; mean of two replicates
// keep it numeric: no unit symbol after the value

Some solved cases for reference:
compound	testedSystem	resultValue
CCCCCC(O)CCCC(=O)O.[Na] (centres unmarked) [5-hydroxydecanoic acid sodium]	SARS-CoV-2 3CLpro (Severe acute respiratory syndrome coronavirus 2, UniProt P0DTD1)	0.3617
CCCCC#Cc1nc(N)c2ncn([C@@H]3O[C@H](C(=O)NCC)[C@@H](O)[C@H]3O)c2n1	SARS-CoV-2 3CLpro (Severe acute respiratory syndrome coronavirus 2, UniProt P0DTD1)	0.2072
FC(F)(F)c1ccccc1-n1ccnc1 [1-[2-(Trifluoromethyl)phenyl]imidazole]	SARS-CoV-2 3CLpro (Severe acute respiratory syndrome coronavirus 2, UniProt P0DTD1)	-0.5336
CC[C@]1(O)C[C@@H]2CN(CCc3c([nH]c4ccccc34)[C@@](C(=O)OC)(c3cc4c(cc3OC)N(C)[C@H]3[C@@](O)(C(=O)OC)[C@H](OC(C)=O)[C@]5(CC)C=CCN6CC[C@]43[C@@H]65)C2)C1.O=S(=O)(O)O [Vinblastine sulfate salt]	SARS-CoV-2 3CLpro (Severe acute respiratory syndrome coronavirus 2, UniProt P0DTD1)	0.3705
CCc1ccccc1OC[C@@H](O)CN[C@H]1CCCc2ccccc21.O=C(O)C(=O)O [SR 59230A oxalate]	SARS-CoV-2 3CLpro (Severe acute respiratory syndrome coronavirus 2, UniProt P0DTD1)	-0.0002221

Prompt line: Could you tell me which mean is on file for CC(C)NCC(O)COc1cccc2[nH]ccc12 (stereo not drawn) [S(-)-Pindolol] ?
Response line: 0.4162

Prompt line: Same again, this time with O.c1cnc2c(c1)ccc1cccnc12 [1,10-Phenanthroline monohydrate]
Response line: 0.3766

Prompt line: Check CC(C)C[C@H](NP(=O)([O-])O[C@H]1O[C@H](C)[C@@H](O)[C@H](O)[C@@H]1O)C(=O)N[C@@H](Cc1c[nH]c2ccccc12)C(=O)[O-].[Na+].[Na+] [Phosphoramidon disodium] too.
Response line: 0.1697

Prompt line: Another compound: Cl.Nc1cc(Cl)c(N=C2NCCN2)c(Cl)c1 [p-Aminoclonidine hydrochloride]
Response line: 0.1922

Prompt line: Okay, and Cc1cc(NC(=O)Nc2ccc3c(ccn3C)c2)sn1 ?
Response line: 0.4215

Prompt line: // next record Nc1nc(SCc2ccc([N+](=O)[O-])cc2)c2ncn([C@@H]3O[C@H](CO)[C@@H](O)[C@H]3O)c2n1
Response line: -0.2707

Prompt line: Same thing, different compound: CS(=O)(=O)O.Cc1c(C(=O)c2cccc3ccccc23)c2cccc3c2n1[C@H](CN1CCOCC1)CO3 [(R)-(+)-WIN 55,212-2 mesylate]
Response line: -0.1611

Prompt line: And Br.NCc1cc(O)no1 [Muscimol hydrobromide] ?
Response line: 0.06352

Prompt line: Follow-up entry: O=C([O-])CCC(NC(=O)c1ccccc1C(=O)[O-])C(=O)[O-].[Na+].[Na+].[Na+] [Phthalamoyl-L-glutamic acid trisodium]
Response line: 0.2394

* * *

- testedSystem: SARS-CoV-2 3CLpro (Severe acute respiratory syndrome coronavirus 2, UniProt P0DTD1)
- protocolDetails: biochemical
- Type: biochemical
- conditionsUsed: 4 h, read-out: Replicate_2
Structures can show the parent of a compound that is named as a salt.
Listing: inhibition at 5 µM of selected molecules
Respond with the bare value in %.

Below, each entry is followed by its recorded inhibition at 5 µM result.
molecule	inhibition at 5 µM / %
C[C@@]12C(=O)OC(=O)[C@]1(C)[C@H]1CC[C@@H]2O1	0.0268
COc1cc(Cc2cnc(N)nc2N)cc(OC)c1OC	-3.24
CNC[C@H](O)c1ccc(O)c(O)c1 [(-)-Epinephrine bitartrate]	0.847
CNCCCC1c2ccccc2C=Cc2ccccc21 [Protriptyline hydrochloride]	-0.325

Prompt line: Which inhibition at 5 µM value is on record for CN/C(=N/CCSCc1nc[nH]c1C)NC#N ?
Response line: 2.91

Prompt line: Likewise for COc1ccc(/C=C/C(=O)Nc2ccccc2C(=O)O)cc1OC ?
Response line: -2.13

Prompt line: Consider next the molecule Oc1ccc2c3c1O[C@H]1c4[nH]c5ccccc5c4C[C@@]4(O)[C@@H](C2)N(CC2CC2)CC[C@]314 [Naltrindole hydrochloride] in the same way.
Response line: 2.54

Prompt line: Query CCN(CC)CCCC(C)Nc1ccnc2cc(Cl)ccc12 (stereo not drawn) [Chloroquine diphosphate] next
Response line: 3.74

Prompt line: Can you handle CN(C)CCCN1c2ccccc2Sc2ccc(Cl)cc21 [Chlorpromazine hydrochloride] next?
Response line: 0.374
